- system-tested: Cynomolgus Factor P (cynomolgus)
- experiment: cell-based or functional assay
outcome-measure: Zymosan-C3b IC50 (nM), 10% serum
Express your answer in nM, writing the number without its unit.

stdin: What measured Zymosan-C3b IC50 (nM), 10% serum goes with NVS962-T (Fab, V domains shown, NVS962 with heavy chain N30 replaced with threonine; also called NSV962-T) VH: EVQLVQSGAEVKKPGSSVKVSCKASGGTFTSYAISWVRQAPGQGLEWMGRIIPIFGTANYAQKFQGRVTITADESTSTAYMELSSLRSEDTAVYYCARHGGYSFDSWGQGTLVTVSS VL: SYELTQPPSVSVAPGQTARISCSGDNLGSKYVDWYQQKPGQAPVLVIYSDNNRPSGIPERFSGSNSGNTATLTISGTQAEDEADYYCQTYTSGNNYLVFGGGTKLTVLG ?
stdout: 3.1

stdin: What measured Zymosan-C3b IC50 (nM), 10% serum goes with NVS965-S (Fab, V domains shown, NVS965 with heavy chain N30 replaced with serine) VH: EVQLVQSGAEVKKPGSSVKVSCKASGGTFSSYAISWVRQAPGQGLEWMGRIIPIFGTANYAQKFQGRVTITADESTSTAYMELSSLRSEDTAVYYCARHGGYSFDSWGQGTLVTVSS VL: SYVLTQPPSVSVAPGKTARISCSGDNLGSKYVDWYQQKPGQAPVLVIYSDNNRPSGIPERFSGSNSGNTATLTISGTQAMDEADYYCATYDSSPRTEVFGGGTKLTVLG ?
stdout: 1.57

stdin: What measured Zymosan-C3b IC50 (nM), 10% serum goes with NVS965-T (Fab, V domains shown, NVS965 with heavy chain N30 replaced with threonine) VH: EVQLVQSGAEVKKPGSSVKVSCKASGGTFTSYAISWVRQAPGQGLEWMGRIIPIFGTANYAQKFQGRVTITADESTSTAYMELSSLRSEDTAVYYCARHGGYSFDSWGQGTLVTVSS VL: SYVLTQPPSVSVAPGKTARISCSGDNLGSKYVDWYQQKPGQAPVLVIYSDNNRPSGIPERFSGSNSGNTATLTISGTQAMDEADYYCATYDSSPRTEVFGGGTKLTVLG ?
stdout: 1.91

stdin: What measured Zymosan-C3b IC50 (nM), 10% serum goes with NVS964 (Fab, V domains shown, Disulfide-bridged Fab; also called Fab NVS964) VH: EVQLVQSGAEVKKPGASVKVSCKASGYTFTSHYMHWVRQAPGQGLEWMGKINADLGDTNYAQKFQGRVTMTRDTSISTAYMELSSLRSEDTAVYYCARDGIEHGGHYYWGYLFDIWGQGTLVTVSS VL: SYELTQPPSVSVAPGQTARISCSGDSIREYYVHWYQQKPGQAPVLVIGDDTNRPSGIPERFSGSNSGNTATLTISGTQAEDEADYYCAAWDFSPAIVFGGGTKLTVLG ?
stdout: 6.59

stdin: What measured Zymosan-C3b IC50 (nM), 10% serum goes with NVS962-Q (Fab, V domains shown, NVS962 with heavy chain N30 replaced with glutamine (deamidation site removed)) VH: EVQLVQSGAEVKKPGSSVKVSCKASGGTFQSYAISWVRQAPGQGLEWMGRIIPIFGTANYAQKFQGRVTITADESTSTAYMELSSLRSEDTAVYYCARHGGYSFDSWGQGTLVTVSS VL: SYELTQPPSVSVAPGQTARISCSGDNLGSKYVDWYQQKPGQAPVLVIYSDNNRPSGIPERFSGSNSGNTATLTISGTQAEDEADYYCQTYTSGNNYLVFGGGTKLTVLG ?
stdout: 1.62
